These data points were gathered from patent US7572786B2.

Target: NK1 (Homo sapiens, UniProt P25103)
Sequence (P25103 whole entry): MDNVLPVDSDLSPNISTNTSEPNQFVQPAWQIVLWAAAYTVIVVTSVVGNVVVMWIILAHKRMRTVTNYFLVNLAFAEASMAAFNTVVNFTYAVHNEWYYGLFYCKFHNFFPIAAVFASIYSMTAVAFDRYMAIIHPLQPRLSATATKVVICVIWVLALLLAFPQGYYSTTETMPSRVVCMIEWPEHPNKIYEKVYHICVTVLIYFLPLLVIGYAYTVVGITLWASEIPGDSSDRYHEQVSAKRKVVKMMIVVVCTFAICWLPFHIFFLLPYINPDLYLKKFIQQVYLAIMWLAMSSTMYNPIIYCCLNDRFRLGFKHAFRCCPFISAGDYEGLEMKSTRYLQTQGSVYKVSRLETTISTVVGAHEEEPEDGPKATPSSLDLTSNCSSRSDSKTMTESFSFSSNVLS
Experiment: Signal transduction (ST), intracellular Ca++ (FLIPR), NK1 antagonism
Type: cell-based
Conditions: read-out: pIC50 NK1 (converted)
Assign labels as follows, please: rule met for IC50 below 0.01 µM; rule not met for IC50 equal to or exceeding 0.01 µM.

compound: O=C(c1cc(C(F)(F)F)cc(C(F)(F)F)c1)N1CCC(N2CCN(C3CCCN(S(=O)(=O)c4cccs4)C3)CC2)CC1Cc1ccccc1 (stereo not drawn)
label_value: rule not met
//
compound: CC(C)(C)OC(=O)N1CCCC1C(=O)N1CCCC(N2CCN(C3CCN(C(=O)c4cc(C(F)(F)F)cc(C(F)(F)F)c4)C(Cc4ccccc4)C3)CC2)C1 (stereo not drawn)
label_value: rule met
//
compound: O=C(c1c(Cl)cccc1Cl)N1CCCC(N2CCN([C@H]3CCN(C(=O)c4cc(C(F)(F)F)cc(C(F)(F)F)c4)[C@H](Cc4ccccc4)C3)CC2)C1 (stereo partly drawn)
label_value: rule not met
//
compound: O=C(c1cc(C(F)(F)F)cc(C(F)(F)F)c1)N1CC[C@H](N2CCN(C3CCCN(C(CO)c4ccccc4Cl)C3)CC2)C[C@H]1Cc1ccccc1 (stereo partly drawn)
label_value: rule not met
//
compound: O=C(c1cc(C(F)(F)F)cc(C(F)(F)F)c1)N1CC[C@H](N2CCN(C3CCCN(c4cnccn4)C3)CC2)C[C@H]1Cc1ccccc1 (stereo partly drawn)
label_value: rule met
//
compound: O=C(c1cc(C(F)(F)F)cc(C(F)(F)F)c1)N1CCC(N2CCN(C3CCCN(C(CO)c4cccs4)C3)CC2)CC1Cc1ccccc1 (stereo not drawn)
label_value: rule not met
//
compound: O=C(c1sccc1COCc1ccccc1)N1CCCC(N2CCN([C@H]3CCN(C(=O)c4cc(C(F)(F)F)cc(C(F)(F)F)c4)[C@H](Cc4ccccc4)C3)CC2)C1 (stereo partly drawn)
label_value: rule not met
//
compound: O=C(C1CCOC1)N1CCCC(N2CCCN(C3CCN(C(=O)c4cc(C(F)(F)F)cc(C(F)(F)F)c4)C(Cc4ccccc4)C3)CC2)C1 (single isomer, unassigned) [Compound 115]
label_value: rule not met
//
compound: COc1ccc(NC(=NC#N)N2CCCC(N3CCN([C@H]4CCN(C(=O)c5cc(C(F)(F)F)cc(C(F)(F)F)c5)[C@H](Cc5ccccc5)C4)CC3)C2)cc1 (stereo partly drawn)
label_value: rule not met
//
compound: O=C(C1CC1)N1CCCC(N2CCN([C@H]3CCN(C(=O)c4cc(C(F)(F)F)cc(C(F)(F)F)c4)[C@H](Cc4ccccc4)C3)CC2)C1 (stereo partly drawn)
label_value: rule not met
//
compound: Cc1ccccc1S(=O)(=O)N1CCCC(N2CCN([C@H]3CCN(C(=O)c4cc(C(F)(F)F)cc(C(F)(F)F)c4)[C@H](Cc4ccccc4)C3)CC2)C1 (stereo partly drawn)
label_value: rule not met

---

Biological target: NK3 (Homo sapiens)
Sequence (P29371 whole entry): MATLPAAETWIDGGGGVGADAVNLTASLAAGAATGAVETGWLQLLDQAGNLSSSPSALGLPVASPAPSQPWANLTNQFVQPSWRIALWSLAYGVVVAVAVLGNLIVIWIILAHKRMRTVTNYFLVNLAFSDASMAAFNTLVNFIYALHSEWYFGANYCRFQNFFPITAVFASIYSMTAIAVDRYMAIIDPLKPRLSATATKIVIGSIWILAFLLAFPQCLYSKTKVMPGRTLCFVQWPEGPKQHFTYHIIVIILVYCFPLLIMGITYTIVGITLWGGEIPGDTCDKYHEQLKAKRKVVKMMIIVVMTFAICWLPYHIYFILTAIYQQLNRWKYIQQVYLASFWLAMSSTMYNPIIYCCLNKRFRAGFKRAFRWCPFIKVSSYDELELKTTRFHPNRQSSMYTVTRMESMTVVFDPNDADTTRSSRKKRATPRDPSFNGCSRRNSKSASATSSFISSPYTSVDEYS
Assay: Signal transduction (ST), intracellular Ca++ (FLIPR), NK3
Assay type: cell-based
Conditions: read-out: pIC50 NK3 (converted)
Item-by-item account of IC50
measured_property: IC50 (nM)

compound: Cc1ccccc1C(=O)N1CCCC(N2CCN([C@H]3CCN(C(=O)c4cc(C(F)(F)F)cc(C(F)(F)F)c4)[C@H](Cc4ccccc4)C3)CC2)C1 (stereo partly drawn)
measurement_target: NK3 (Homo sapiens)
units_of_measure: nM
data_value: 1000
--
compound: O=C(c1cc(C(F)(F)F)cc(C(F)(F)F)c1)N1CCC(N2CCN(C3CCCN(S(=O)(=O)c4cc(CCO)cs4)C3)CC2)CC1Cc1ccccc1 (stereo not drawn)
measurement_target: NK3 (Homo sapiens)
units_of_measure: nM
data_value: 100
--
compound: Cc1nc(C)c(S(=O)(=O)N2CCCC(N3CCN([C@H]4CCN(C(=O)c5cc(C(F)(F)F)cc(C(F)(F)F)c5)[C@H](Cc5ccccc5)C4)CC3)C2)s1 (stereo partly drawn)
measurement_target: NK3 (Homo sapiens)
units_of_measure: nM
data_value: 251
--
compound: O=C(c1cc(C(F)(F)F)cc(C(F)(F)F)c1)N1CC[C@H](N2CCCN(C3CCCN(Cc4ccccc4)C3)CC2)C[C@H]1Cc1ccccc1 (stereo partly drawn)
measurement_target: NK3 (Homo sapiens)
units_of_measure: nM
data_value: 7940
--
compound: N#Cc1ccc(C(=O)N2CCCC(N3CCN([C@H]4CCN(C(=O)c5cc(C(F)(F)F)cc(C(F)(F)F)c5)[C@H](Cc5ccccc5)C4)CC3)C2)cc1 (stereo partly drawn)
measurement_target: NK3 (Homo sapiens)
units_of_measure: nM
data_value: 3160
--
compound: Cc1c(S(=O)(=O)N2CCCC(N3CCN([C@H]4CCN(C(=O)c5cc(C(F)(F)F)cc(C(F)(F)F)c5)[C@H](Cc5ccccc5)C4)CC3)C2)cnn1-c1ccccc1 (stereo partly drawn)
measurement_target: NK3 (Homo sapiens)
units_of_measure: nM
data_value: 5010

---

Biological target: UniProtKB P21452
Sequence (P21452 1-398): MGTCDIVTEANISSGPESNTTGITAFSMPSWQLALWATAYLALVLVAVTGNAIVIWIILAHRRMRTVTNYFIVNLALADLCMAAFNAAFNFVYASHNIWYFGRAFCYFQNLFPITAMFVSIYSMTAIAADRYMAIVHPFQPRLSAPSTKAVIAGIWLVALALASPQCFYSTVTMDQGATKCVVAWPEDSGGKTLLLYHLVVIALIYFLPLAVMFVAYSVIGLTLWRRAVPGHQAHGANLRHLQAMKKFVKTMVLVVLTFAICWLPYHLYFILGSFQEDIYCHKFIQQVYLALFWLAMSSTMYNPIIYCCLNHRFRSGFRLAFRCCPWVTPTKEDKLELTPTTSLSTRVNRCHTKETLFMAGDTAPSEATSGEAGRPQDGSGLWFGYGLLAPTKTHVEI
Experiment: Signal transduction (ST), intracellular Ca++ (FLIPR), NK2
Format: cell-based
Note to self: values exactly at 6 are yes (1). So pIC50 NK2 at or above 6 is yes (1), below is no (0).

molecule: O=C(Nc1ccc(Cl)cc1)N1CCCC(N2CCN([C@H]3CCN(C(=O)c4cc(C(F)(F)F)cc(C(F)(F)F)c4)[C@H](Cc4ccccc4)C3)CC2)C1 (stereo partly shown)
label_value: no (0)

molecule: CC(C)(C)OC(=O)N1CCC[C@@H]1C(=O)N1CCCC(N2CCN([C@H]3CCN(C(=O)c4cc(C(F)(F)F)cc(C(F)(F)F)c4)[C@H](Cc4ccccc4)C3)CC2)C1 (stereo partly shown)
label_value: no (0)

molecule: O=C(c1cc(C(F)(F)F)cc(C(F)(F)F)c1)N1CC[C@H](N2CCN(C3CCCN(S(=O)(=O)c4ccc(Cl)s4)C3)CC2)C[C@H]1Cc1ccccc1 (stereo partly shown)
label_value: no (0)

molecule: COc1cccc(S(=O)(=O)N2CCCC(N3CCN([C@H]4CCN(C(=O)c5cc(C(F)(F)F)cc(C(F)(F)F)c5)[C@H](Cc5ccccc5)C4)CC3)C2)c1 (stereo partly shown)
label_value: no (0)

molecule: O=C(c1cc(C(F)(F)F)cc(C(F)(F)F)c1)N1CC[C@H](N2CCN(C3CCCN(S(=O)(=O)c4cccs4)C3)CC2)C[C@H]1Cc1ccccc1 (stereo partly shown)
label_value: yes (1)

molecule: O=C(c1cc(C(F)(F)F)cc(C(F)(F)F)c1)N1CC[C@H](N2CCN(C3CCCN(S(=O)(=O)c4occc4COCc4ccccc4)C3)CC2)C[C@H]1Cc1ccccc1 (stereo partly shown)
label_value: no (0)

molecule: O=C(c1cc(C(F)(F)F)cc(C(F)(F)F)c1)N1CC[C@H](N2CCN(C3CCCN(S(=O)(=O)c4ccc(CCO)s4)C3)CC2)C[C@H]1Cc1ccccc1 (stereo partly shown)
label_value: yes (1)

molecule: O=C(c1cc(CCOCc2ccccc2)cs1)N1CCCC(N2CCN([C@H]3CCN(C(=O)c4cc(C(F)(F)F)cc(C(F)(F)F)c4)[C@H](Cc4ccccc4)C3)CC2)C1 (stereo partly shown)
label_value: no (0)

molecule: COc1ccccc1S(=O)(=O)N1CCCC(N2CCN([C@H]3CCN(C(=O)c4cc(C(F)(F)F)cc(C(F)(F)F)c4)[C@H](Cc4ccccc4)C3)CC2)C1 (stereo partly shown)
label_value: no (0)

molecule: O=C(c1cc(C(F)(F)F)cc(C(F)(F)F)c1)N1CC[C@H](N2CCN(C3CCCN(S(=O)(=O)c4cc(Cl)sc4Cl)C3)CC2)C[C@H]1Cc1ccccc1 (stereo partly shown)
label_value: no (0)

---

Target: NK2 (Homo sapiens, UniProt P21452)
Experiment: Signal transduction (ST), intracellular Ca++ (FLIPR), NK2
Format: cell-based
Settings: read-out: pIC50 NK2 (converted)

compound: Cn1cnc(C(=O)N2CCCC(N3CCN([C@H]4CCN(C(=O)c5cc(C(F)(F)F)cc(C(F)(F)F)c5)[C@H](Cc5ccccc5)C4)CC3)C2)c1 (stereo partly drawn)
measurement_target: NK2 (Homo sapiens, UniProt P21452)
IC50, nM: 3160

compound: O=C(c1cc(C(F)(F)F)cc(C(F)(F)F)c1)N1CC[C@H](N2CCN(C3CCCN(S(=O)(=O)c4ccccc4)C3)CC2)C[C@H]1Cc1ccccc1 (stereo partly drawn)
measurement_target: NK2 (Homo sapiens, UniProt P21452)
IC50, nM: 2000

compound: Cc1nnsc1C(=O)N1CCCC(N2CCN([C@H]3CCN(C(=O)c4cc(C(F)(F)F)cc(C(F)(F)F)c4)[C@H](Cc4ccccc4)C3)CC2)C1 (stereo partly drawn)
measurement_target: NK2 (Homo sapiens, UniProt P21452)
IC50, nM: 2510
